Items are presented alongside their recorded pIC50.
- tested.target: human serum BChE (Homo sapiens, UniProt P06276)
- Construct: human serum BChE (Sigma-Aldrich, Milan, Italy) was assessed by Ellman’s method; purchased Sigma-Aldrich, Milan, Italy; host or cells: human serum
- Sequence (P06276 29-602): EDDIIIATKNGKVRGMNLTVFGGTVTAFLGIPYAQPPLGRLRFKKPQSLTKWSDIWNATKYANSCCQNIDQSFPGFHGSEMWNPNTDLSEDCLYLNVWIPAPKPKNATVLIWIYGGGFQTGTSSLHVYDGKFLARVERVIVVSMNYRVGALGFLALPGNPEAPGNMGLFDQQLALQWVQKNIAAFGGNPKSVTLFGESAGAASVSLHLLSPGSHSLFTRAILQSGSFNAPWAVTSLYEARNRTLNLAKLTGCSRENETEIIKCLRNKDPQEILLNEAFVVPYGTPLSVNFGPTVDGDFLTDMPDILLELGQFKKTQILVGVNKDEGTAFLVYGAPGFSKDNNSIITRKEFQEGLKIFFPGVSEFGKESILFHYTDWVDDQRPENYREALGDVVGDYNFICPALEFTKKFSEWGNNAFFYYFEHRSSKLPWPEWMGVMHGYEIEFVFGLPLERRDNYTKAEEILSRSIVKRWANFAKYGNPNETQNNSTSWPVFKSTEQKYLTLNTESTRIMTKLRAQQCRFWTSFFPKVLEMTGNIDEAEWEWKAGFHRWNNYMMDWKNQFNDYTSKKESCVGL
- Type: biochemical
- condition.details: read-out: hBChE IC50
pIC50 here is simply -log10 of the concentration when that concentration is written in mol/L.

{"columns": ["compound", "pIC50"],
 "data": [
  ["CC1=C[C@H]2Cc3nc4cc(Cl)ccc4c(N)c3[C@@H](C1)C2 [(+)-3, (+)-huprine Y, reference compound]", 6.77]
]}

Query string: Item CC1=C[C@@H]2Cc3nc4cc(Cl)ccc4c(N)c3[C@H](C1)C2 [(−)-3, (−)-huprine Y, reference compound] : provide pIC50
Result string: 6.65
